# Tested on: human CD33
# Protocol Text: Biacore SPR binding kinetics of anti-CD33 scFv-Fc clones with or without 10 µM MTX
# Recorded Conditions: CD33; 10 µM MTX; 37° C., pH 7.4; scFv-Fc
Measured koff, kinetics toward antigen with 10 µM MTX by item
Just the number please, in s⁻¹, no unit attached.

Molecule	Unit	Recorded Result
P08_C08: anti-CD33 clone with conditional affinity; VH SEQ ID NO: 27, VL SEQ ID NO: 28 (antibody, V domains shown, Synthetic Antibody) VH: QVQLVESGGGLVQAGGSLRLSCAASRRSSRSWAMHWVRQAPGKGLEWVAVISYDGRLKYYADSVKGRFTISRDNAEYLVYLQMNSLRAEDTAVYYCAAEGSGSTDGSGAIDVWGQGTLVTVSS VL: DIQMTQSPSSLSASVGDRVTITCRASQSIGSYLNWYQQKPGKAPKLLIYAASSLQSGVPSRFSGSGSGTDFTLTISSLQPEDFATYYCQQSYSSGSFGQGTKVEIK	s⁻¹	0.051
P04_C05: anti-CD33 clone with conditional affinity; VH SEQ ID NO: 41, VL SEQ ID NO: 42 (antibody, V domains shown, Synthetic Antibody) VH: QVQLVESGGGLVQAGGSLRLSCAASRRSSRSWAMHWVRQAPGKGLEWVAVISYDGRLKYYADSVKGRFTISRDNAEYLVYLQMNSLRAEDTAVYYCAAGLPWTDYWGQGTLVTVSS VL: QSVLTQPPSASGTPGQRVTISCSGSNSNIGSNYVSWYQQLPGTAPKLLIYSNNQRPSGVPDRFSGSKSGTSASLAISGLRSEDEADYYCAAWDDRLSVVFGTGTKLTVL	s⁻¹	0.013

Suppose we examine the molecule P01_B02: anti-CD33 clone with increased affinity in presence of MTX; VH SEQ ID NO: 31, VL SEQ ID NO: 32 (antibody, V domains shown, Synthetic Antibody) VH: QVQLVESGGGLVQAGGSLRLSCAASRRSSRSWAMHWVRQAPGKGLEWVAVISYDGRLKYYADSVKGRFTISRDNAEYLVYLQMNSLRAEDTAVYYCAAADWYSGGGDALDIWGQGTLVTVSS VL: DIQMTQSPSSLSASVGDRVTITCRASQTIYNYLNWYQQKPGKAPKLLIYGASNLQSGVPSRFSGSGSGTDFTLTISSLQPEDFATYYCQQTYSSPTFGQGTKVEIK ; what koff, kinetics toward antigen with 10 µM MTX value has been reported?
0.0006

Repeat for the following molecule: P02_D08: anti-CD33 clone with conditional affinity; VH SEQ ID NO: 13, VL SEQ ID NO: 14 (antibody, V domains shown, Synthtic Antibody; Synthetic Antibody) VH: QVQLVESGGGLVQAGGSLRLSCAASRRSSRSWAMHWVRQAPGKGLEWVAVISYDGRLKYYADSVKGRFTISRDNAEYLVYLQMNSLRAEDTAVYYCAAERGDGLDGNVGLDIWGQGTLVTVSS VL: DIQMTQSPSSLSASVGDRVTITCRASQSISKYLNWYQQKPGKAPKLLIYGASTLQSGVPSRFSGSGSGTDFTLTISSLQPEDFATYYCQQSYSSGTFGQGTKVEIK
0.062

Repeat for the following molecule: P16_E06: anti-CD33 clone with conditional affinity; VH SEQ ID NO: 29, VL SEQ ID NO: 30 (antibody, V domains shown, Synthetic Antibody) VH: QVQLVESGGGLVQAGGSLRLSCAASRRSSRSWAMHWVRQAPGKGLEWVAVISYDGRLKYYADSVKGRFTISRDNAEYLVYLQMNSLRAEDTAVYYCAAEGGDYPGTSDGGLDIWGQGTLVTVSS VL: DIQMTQSPSSLSASVGDRVTITCRASQSISNYLNWYQQKPGKAPKLLIYGASSLQSGVPSRFSGSGSGTDFTLTISSLQPEDFATYYCQQSYSAGTFGQGTKVEIK
0.087

Repeat for the following molecule: P04_C09: anti-CD33 clone with conditional affinity; VH SEQ ID NO: 23, VL SEQ ID NO: 24 (antibody, V domains shown, Synthetic Antibody) VH: QVQLVESGGGLVQAGGSLRLSCAASRRSSRSWAMHWVRQAPGKGLEWVAVISYDGRLKYYADSVKGRFTISRDNAEYLVYLQMNSLRAEDTAVYYCAAEANESDSGGIDVWGQGTLVTVSS VL: DIQMTQSPSSLSASVGDRVTITCRASQTIGGYLNWYQQKPGKAPKLLIYAASSLQSGVPSRFSGSGSGTDFTLTISSLQPEDFATYYCQQGYSSGAFGQGTKVEIK
0.0089

Repeat for the following molecule: P02_C02: anti-CD33 reference clone, less than 2-fold MTX effect; VH SEQ ID NO: 11, VL SEQ ID NO: 12 (antibody, V domains shown, Synthetic Antibody) VH: QVQLVESGGGLVQAGGSLRLSCAASRRSSRSWAMHWVRQAPGKGLEWVAVISYDGRLKYYADSVKGRFTISRDNAEYLVYLQMNSLRAEDTAVYYCAAEGGMGLDPWGQGTLVTVSS VL: DIQMTQSPSSLSASVGDRVTITCRASQTISSYLNWYQQKPGKAPKLLIYAASNLHSGVPSRFSGSGSGTDFTLTISSLQPEDFATYYCQQSYSSGTFGQGTKVEIK
0.025

Repeat for the following molecule: P07_C04: anti-CD33 clone with conditional affinity; VH SEQ ID NO: 25, VL SEQ ID NO: 26; also as scFv in CAR (antibody, V domains shown, Synthetic Antibody, also as scFv in CAR) VH: QVQLVESGGGLVQAGGSLRLSCAASRRSSRSWAMHWVRQAPGKGLEWVAVISYDGRLKYYADSVKGRFTISRDNAEYLVYLQMNSLRAEDTAVYYCAAEPDGEGTNGGLDIWGQGTLVTVSS VL: DIQMTQSPSSLSASVGDRVTITCRASQNISRYLNWYQQKPGKAPKLLIYSASSLQTGVPSRFSGSGSGTDFTLTISSLQPEDFATYYCQQSYSSGAFGQGTKVEIK
0.025
